Quick reference: protein stability index of the listed items.
B1: GLTSCR2 (parent)
chain: YNPSFEDHQTLLSAAHEVELQRQK

Variants of: B1
Test: protein stability index of a GFP-peptide fusion (GPS, HEK-293T) (PSI 1-6); higher = more stable;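 further: lentivirally expressed fusions sorted by FACS into six bins by GFP to DsRed ratio, PSI derived from sequencing read proportions per bin multiplied by bin number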
Conditions: c terminus: a fixed tail appended
Field format: numeric only.

Below, 2 variants whose answers are already recorded.
| Mutant Name | Data Value |
| --- | --- |
| S13F | 2.66 |
| Y1N | 4.71 |

What protein stability index value was documented for this variant, R22I ?
2.91

Another variant: S4N
4.48

Item: N2I
3.38

Try the variant L11K
4.71

Param item: S13T
4.17

What would you report for E19M ?
3.01

And what about the variant L12R ?
4.44

Now the same for H16I
2.53

Consider next the variant E19G in the same way.
3.8

Please answer likewise for S4R
4.65

D7E ?
3.46

Another: K24N
3.96

Q9H ?
3.68

Then D7P ?
4.13

Same again, this time with Q23P
3.96

Try this variant next: E6F
2.51

Note, next up: E6D
4.14

Also K24D , if possible.
4.28
